Target: T1, MT1-160p (MT1-MMP amino acids 160-174) (human)
T1 peptide: REVPYAYIREGHEKQ
Test: ELISA
outcome_measure: Kd (nM)

binder | measured_result
HWKHLHNTKTFL [phage-displayed MT1-AF7p] | 0.075
